Reference source for all entries: the supplement of paper PMC8728848

biological target: Gal3S6S(b1-4)GlcNAc6S; assay: glycan array binding signal (z-score within array); higher = stronger binding; details: glycan notation: IUPAC condensed, linker removed
About 410 targets per protein were measured; listed, in parts, are those with the strongest signals and a random draw of the rest.
Readout name: glycan array binding signal (z-score)
Answer with a bare number; do not write a unit.

Binder	Readout name	Endpoint result
MUB70 (Lactobacillus reuteri) (protein) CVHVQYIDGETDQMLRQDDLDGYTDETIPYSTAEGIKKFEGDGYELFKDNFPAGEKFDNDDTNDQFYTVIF	glycan array binding signal (z-score)	3.78

Asked: Reported glycan array binding signal (z-score), binder L-Selectin (Mus musculus), P18337 (protein) MVFPWRCEGTYWGSRNILKLWVWTLLCCDFLIHHGTHCWTYHYSEKPMNWENARKFCKQNYTDLVAIQNKREIEYLENTLPKSPYYYWIGIRKIGKMWTWVGTNKTLTKEAENWGAGEPNNKKSKEDCVEIYIKRERDSGKWNDDACHKRKAALCYTASCQPGSCNGRGECVETINNHTCICDAGYYGPQCQYVVQCEPLEAPELGTMDCIHPLGNFSFQSKCAFNCSEGRELLGTAETQCGASGNWSSPEPICQVVQCEPLEAPELGTMDCIHPLGNFSFQSKCAFNCSEGRELLGTAETQCGASGNWSSPEPICQETNRSFSKIKEGDYNPLFIPVAVMVTAFSGLAFLIWLARRLKKGKKSQERMDDPY : ____
Given back: 4.38

Asked: What do we get for OVGAL11 (Ovis aries), AAF64320 (protein) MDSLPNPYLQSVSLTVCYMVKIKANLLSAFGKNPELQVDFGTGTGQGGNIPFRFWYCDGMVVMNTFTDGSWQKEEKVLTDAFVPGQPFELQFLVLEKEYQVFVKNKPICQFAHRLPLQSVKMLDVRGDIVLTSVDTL ?
Given back: 0.724

Asked: Note, next up: Clec2 (Mus musculus), Q9JL99 (protein) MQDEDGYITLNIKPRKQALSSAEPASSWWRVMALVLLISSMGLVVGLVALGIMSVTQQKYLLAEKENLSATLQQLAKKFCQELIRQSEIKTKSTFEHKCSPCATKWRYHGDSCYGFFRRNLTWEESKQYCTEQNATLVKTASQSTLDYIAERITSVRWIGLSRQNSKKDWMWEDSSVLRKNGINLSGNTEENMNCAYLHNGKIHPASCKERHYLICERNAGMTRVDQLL
Given back: 4.08

Asked: Consider next the binder CC1G-11630 (Coprinopsis cinerea), A8P462 (protein) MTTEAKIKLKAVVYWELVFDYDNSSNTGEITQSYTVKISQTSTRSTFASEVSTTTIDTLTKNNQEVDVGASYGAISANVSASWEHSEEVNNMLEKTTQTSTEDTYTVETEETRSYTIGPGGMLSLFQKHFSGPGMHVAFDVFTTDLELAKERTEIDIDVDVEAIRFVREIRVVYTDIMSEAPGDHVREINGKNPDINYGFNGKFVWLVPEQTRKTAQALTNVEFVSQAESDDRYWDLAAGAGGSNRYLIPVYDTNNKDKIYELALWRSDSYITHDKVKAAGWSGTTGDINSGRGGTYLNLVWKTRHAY in the same way.
Given back: 2.52
